Each recorded value in this set is attributed to patent US20250320312A1.

Catalogue of OD450 values
- MEASUREMENT TARGET: BSA (UniProt P02769)
- Sequence (P02769 25-607 limits assumed): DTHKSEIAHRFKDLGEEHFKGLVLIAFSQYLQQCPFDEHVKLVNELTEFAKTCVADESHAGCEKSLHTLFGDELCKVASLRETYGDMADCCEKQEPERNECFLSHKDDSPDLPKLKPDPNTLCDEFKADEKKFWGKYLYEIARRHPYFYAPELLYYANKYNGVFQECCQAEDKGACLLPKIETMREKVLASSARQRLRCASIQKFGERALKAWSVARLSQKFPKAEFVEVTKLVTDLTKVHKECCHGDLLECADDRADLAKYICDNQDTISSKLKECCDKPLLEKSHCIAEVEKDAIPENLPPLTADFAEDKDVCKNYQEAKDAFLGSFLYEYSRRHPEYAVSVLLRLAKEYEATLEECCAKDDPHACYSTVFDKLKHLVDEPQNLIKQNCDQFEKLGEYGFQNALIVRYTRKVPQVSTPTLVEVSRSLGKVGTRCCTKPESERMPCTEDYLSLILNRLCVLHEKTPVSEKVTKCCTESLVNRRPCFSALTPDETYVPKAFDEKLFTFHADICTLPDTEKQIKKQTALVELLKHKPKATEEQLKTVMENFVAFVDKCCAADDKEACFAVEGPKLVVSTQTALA
- ASSAY REMARKS: scFv ELISA
REPORTED PROPERTY: OD450 (OD450)

>>> recorded_value("PcOxP_DB03_A07 (scFv, V domains shown, scFv in periplasmic extract) VH: EVQLLESGGGLVQPGGSLRLSCAASGFHFSDFYMEWVRQAPGKGLEWVAASRNKANDYTTEYADSVKGRFTISRDNSKNTLYLQMNSLRAEDTAVYYCARDYYGSSYWYFDVWGQGTLVTVSS VL: DIVMTQSPDSLAVSLGERATINCTASENLYSSKHKVHYLAWYQQKPGQPPKLLIYGASNRYSGVPDRFSGSGSGTDFTLTISSLQAEDVAVYYCAQFYSYPLTFGGGTKVEIK")
0.06
>>> recorded_value("PcOxP_DB01_B02 (scFv, V domains shown, scFv in periplasmic extract) VH: EVQLLESGGGLVQPGGSLRLSCAASGGTFSDFYMEWVRQAPGKGLEWVAASRNKANSYTTAYADSVKGRFTISRDNSKNTLYLQMNSLRAEDTAVYYCARDYYGSSYWYFDVWGQGTLVTVSS VL: DIVMTQSPDSLAVSLGERATINCTASESLYSSKHKVHYLAWYQQKPGQPPKLLIYGASNRYIGVPDRFSGSGSGTDFTLTISSLQAEDVAVYYCAQFYSYPLTFGGGTKVEIK")
0.09
